assay: blood-stage malaria parasite viability loss – strain 3D7, DAPI fluorescence, 100 nL, primary screen (AID 1184);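 also: parasites grown inside human red blood cells in medium with human serum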; details: P. falciparum 3D7 growth, 3 d, higher = more signal
Respond with Met for z-score values of -0.3 and above, Not met for values below.

INPUT: Has C=C(C)[C@@H]1CC=C(C(O)C2C=CC3C(=O)N(c4ccccc4)C(=O)C3N2Nc2ccc([N+](=O)[O-])cc2)CC1 (stereo partly drawn) a recorded z-score greater than or equal to -0.3?
OUTPUT: Not met

INPUT: Has CCCN1C(=O)[C@]2(CCC(=O)OC(C)(C)C)N=C(c3ccc(OCCCO)cc3)O[C@@H]2c2ccccc21 a recorded z-score greater than or equal to -0.3?
OUTPUT: Not met

INPUT: Has O=C1N(CCS(=O)(=O)c2ccccc2)c2ccccc2C[C@]12N=C(c1ccc(OCCCO)cc1)O[C@@H]2c1ccccc1 a recorded z-score greater than or equal to -0.3?
OUTPUT: Not met

INPUT: Has COCCCN1C(=O)[C@@]2(c3ccc([N+](=O)[O-])cc3)CC(=O)N(CC34CC5CC(CC(C5)C3)C4)[C@@H]2c2ccc(CO)cc21 a recorded z-score greater than or equal to -0.3?
OUTPUT: Met

INPUT: Has COc1cc(C(O)C2C=CC3C(=O)N(c4ccccc4)C(=O)C3N2Nc2ccccc2F)cc(OC)c1OC (stereo not drawn) a recorded z-score greater than or equal to -0.3?
OUTPUT: Met

INPUT: Has CCCC[C@H]1OB(O)C[C@H]2C1=C(COc1ccccc1)C[C@H]1C(=O)C=CC(=O)[C@H]12 a recorded z-score greater than or equal to -0.3?
OUTPUT: Not met

INPUT: Has O=C1O[C@H](Cc2ccccc2)[C@@H]2[C@H]3C=CCCC=C3CN2[C@H]1Cc1ccc(O)cc1 a recorded z-score greater than or equal to -0.3?
OUTPUT: Not met

INPUT: Has Cc1ccc(S[C@]2(C(=O)NCc3ccccc3)CC(=O)N(Cc3ccccc3C(F)(F)F)[C@@H]2c2ccc(CO)cc2)cc1 a recorded z-score greater than or equal to -0.3?
OUTPUT: Met
